meta.source: paper PMC4503722

- Test system: nuclear β-catenin in C2C12 cells
- Assay info: cells
- Format: cell-based
- Conditions: Mus musculus, C2C12, read-out: Wnt Pathway
Endpoint label: pEC50
One number for each entry, as −log10 of the molar value.

Before answering, review these 3 worked examples.
Cc1cc(C2CCCCC2)n(O)c(=O)c1: 5.98
CN(C)c1ccc(C(=C2C=CC(=[N+](C)C)C=C2)c2ccccc2)cc1: 6.44
CC[C@]1(O)C[C@H]2CN(CCc3c([nH]c4ccccc34)[C@@](C(=O)OC)(c3cc4c(cc3OC)N(C=O)[C@H]3[C@@](O)(C(=O)OC)[C@H](OC(C)=O)[C@]5(CC)C=CCN6CC[C@]43[C@@H]65)C2)C1: 8.40

Field: next molecule
Query string: # pEC50 lookup, item CCc1nc(N)nc(N)c1-c1ccc(Cl)cc1 [pyrimethamine, reference compound]
Result string: 7.17

---

- Tested on: HCT116 cells treated with a GSK3β inhibitor
- Assay info: cells
- Type: cell-based
- Conditions: assay number 26; GSK3b inhibitor pretreated; read-out: GSK3b inh pretreated_Viability ATP HCT116 summarized IC50
Endpoint label: IC50

CCCCCCCCCCCCCCCC[n+]1ccccc1: 2.29 µM

Your task in this section: give IC50 for each listed record.
1. Cc1ccc2c(Br)cc(Br)c(O)c2n1
2. Oc1ccc(Cl)cc1Cc1ccccc1
3. Cc1nnc(NS(=O)(=O)c2ccc(N)cc2)s1
4. Nc1c2ccccc2nc2ccccc12

Result string:
1. 1.03 µM
2. > 6.67 µM
3. > 20 µM
4. 3.87 µM

---

- Tested on: tonic K+ channel activity in INS-1E cells
- Assay info: cells
- Format: cell-based, rat
- Conditions: assay number 10; 0.1 mM glucose
Hi! Could you tag entries with 0.1mMGluc_INS1E FluxOR IC50/EC50 below 40 µM as y, and those at or above as n? Much appreciated.

A selection of reference data follows.
CCN(CC)CCOCCOC(=O)C1(c2ccccc2)CCCC1: y
CC(C)C1CCC(C(=O)N[C@H](Cc2ccccc2)C(=O)O)CC1 (stereo partly drawn): y
CN1CCCN(C(c2ccccc2)c2ccc(Cl)cc2)CC1 (stereo not drawn): y

Query string: Regarding CC1CC(=O)NN=C1c1ccc(NCC(C)(C)NCC(O)COc2cc(Cl)ccc2C#N)cc1 (stereo not drawn) , kindly confirm whether its 0.1mMGluc_INS1E FluxOR IC50/EC50 is beneath 40 µM.
Result string: n

---

Exercise: for every item that follows, state its recorded IC50.
- Tested on: DLD-1
- Assay info: cells
- Format: cell-based
- Conditions: Homo sapiens, DLD-1, read-out: Basal_Viability ATP DLD-1
Numbers only, in µM.

In the examples that follow, each entry is paired with its recorded IC50.
COc1ccc2cc1Oc1ccc(cc1)C[C@H]1c3c(cc4c(c3Oc3cc5c(cc3OC)CCN(C)[C@@H]5C2)OCO4)CCN1C [Cepharanthine]: 12.4
CO[C@@]12[C@H](COC(N)=O)C3=C(C(=O)C(C)=C(N)C3=O)N1C[C@@H]1N[C@@H]12 [Mitomycin]: 5.63
O=C1c2c(O)ccc(O)c2C(=O)c2c(NCCNCCO)ccc(NCCNCCO)c21 [mitoxantrone]: 1.6
COc1ccc(-c2ccc3cc(C(=O)O)ccc3c2)cc1C12CC3CC(CC(C3)C1)C2 [Adapalene]: 0.597

Parameters: items (list). Returns: IC50 for each item.
1. COC(=O)Nc1nc2ccc(C(=O)c3ccccc3)cc2[nH]1 [Mebendazole]
2. Cc1cc(C2CCCCC2)n(O)c(=O)c1 [ciclopirox]

Result string:
1: 10.1; 2: 0.316
